Molecular target: NADPH oxidase 4 (Homo sapiens) (UniProt Q9NPH5)
Sequence (Q9NPH5 whole entry, looked up): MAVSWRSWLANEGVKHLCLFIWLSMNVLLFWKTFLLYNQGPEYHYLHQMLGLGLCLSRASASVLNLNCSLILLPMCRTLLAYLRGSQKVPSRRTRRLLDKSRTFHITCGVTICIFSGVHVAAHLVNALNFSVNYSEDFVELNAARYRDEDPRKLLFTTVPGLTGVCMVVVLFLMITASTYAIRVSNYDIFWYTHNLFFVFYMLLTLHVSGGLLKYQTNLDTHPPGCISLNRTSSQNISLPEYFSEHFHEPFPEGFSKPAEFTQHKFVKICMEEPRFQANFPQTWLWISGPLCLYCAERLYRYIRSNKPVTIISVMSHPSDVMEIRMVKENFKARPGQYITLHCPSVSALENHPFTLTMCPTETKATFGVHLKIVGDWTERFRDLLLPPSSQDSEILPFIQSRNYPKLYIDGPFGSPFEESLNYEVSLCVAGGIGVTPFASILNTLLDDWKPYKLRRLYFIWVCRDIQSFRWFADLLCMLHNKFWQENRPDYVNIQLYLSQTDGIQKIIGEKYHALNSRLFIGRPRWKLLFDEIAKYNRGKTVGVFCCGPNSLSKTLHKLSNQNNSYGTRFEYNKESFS
Experiment: NOX4-dependent H2O2 signal modulators, primary screen, NOX inhibitor project, cell-based, HEK293-NOX4, tetracycline-induced, Amplex Red fluorescence (AID 1160)
Conditions: 45 min, higher = more signal, called active from +8 up or from −8 down
observed_property: z-score
Numbers only.

COC(=O)c1c(CC[C@@H](CO)NC(=O)N[C@@H](Cc2ccccc2)Cn2cc(C3(O)CCCCC3)nn2)oc(C(C)=O)c1C(=O)OC | -2.18

Report z-score for each item below.
1. COC(=O)[C@@]1(Cc2ccccc2N=[N+]=[N-])COC(c2ccc(OCCCO)cc2)=N1
2. C=CC(COC(C)=O)NS(=O)(=O)c1ccc(Br)cc1 (centres undefined)
3. COCCOC(=O)N1C(=O)[C@@]2(c3ccccc31)[C@H](C(=O)NC[C@H](O)c1ccccc1)[C@H]1C(=O)O[C@H](c3ccccc3)[C@H](c3ccccc3)N1[C@@H]2c1ccc(OCCO)cc1
4. CC(=O)NCCCC[C@@H]1NC(=O)[C@H]2C[C@@H](C(=O)NCCCCCC[N+](C)(C)C)[C@@H](c3cccc(OCCO)c3)N2C1=O
5. COCCOC(=O)N1C(=O)[C@@]2(c3cc(C#CCC(C(=O)OC)C(=O)OC)ccc31)[C@H](c1ccc(O)cc1)N1[C@H](c3ccccc3)[C@H](c3ccccc3)OC(=O)[C@H]1[C@@H]2C(N)=O
6. COCCOC(=O)N1C(=O)[C@@]2(c3cc(C#CCNC(N)=O)ccc31)[C@H](c1ccc(O)cc1)N1[C@H](c3ccccc3)[C@H](c3ccccc3)OC(=O)[C@H]1[C@@H]2C(=O)NC[C@H](O)c1ccccc1
7. COc1ccc(C#Cc2ccc3c(c2)[C@]2(C(=O)N3)[C@H](C(=O)NC[C@H](O)c3ccccc3)[C@H]3C(=O)O[C@H](c4ccccc4)[C@H](c4ccccc4)N3[C@@H]2c2ccccc2OCCO)cc1
8. O=C(OCCF)C1=CCC(c2cccc(Cl)c2)O1 (centres undefined)

[-0.156, -0.0279, 1.13, 0.383, 0.525, 0.326, 0.36, 0.842]

----------
Assay: adipocyte viability effects, profiling panel, cell-based, 3T3-L1 adipocytes, calcein-AM fluorescence, 48 h, basal (AID 1163); note: test concentration not given here
Conditions: 3T3-L1 adipocytes viability, higher = more signal
Give z-score for every item shown.
Give bare numbers.

CCOC(=O)C1=CCC(c2ccc(C#N)cc2)N(S(=O)(=O)c2ccc(C)cc2)C1 (stereo not drawn) | -0.68
COc1ccc([Si](C)(C)[C@@H]2[C@@H](CC(=O)N(CCO)Cc3ccccc3)O[C@]3(C(=O)N(C)c4ccccc43)[C@H]2C)cc1 | 0.349

Hi! Can you tell me z-score for each of these molecules?
1. COC(=O)[C@@]1(Cc2ccc(OC)cc2)[C@H]2c3cc(C(=O)N4CCCC4)n(CCc4c[nH]c5cc(F)ccc45)c3C[C@H]2CN1C(=O)c1ccccc1
2. O=C1OCC=C[C@H]2OC34C=CCN(c5ccc6ccccc6c5)C(=O)[C@H]3N(CCCO)C(=O)[C@@H]4[C@@H]12 (stereo partly drawn)
3. CC(C)Cc1ccc(CN2CC[C@@H](NS(=O)(=O)c3ccccc3)C2)cc1
4. C=C(COC)/C(=C/C[C@H](OC(=O)c1ccncc1)c1cccc(OCCO)c1)c1cc(C(=O)OC)ccc1OC
5. CC(C)CNC(=O)[C@@H]1c2ccccc2C(=O)N(Cc2cc(C(F)(F)F)cc(C(F)(F)F)c2)[C@H]1c1ccc(CO)cc1
6. CC(C)C[C@@H]1NC(=O)[C@@H]2C[C@H](C(=O)NCCCCCC[N+](C)(C)C)[C@H](c3ccc(O)cc3)N2C1=O

-0.124
1.79
-0.568
0.987
0.628
-0.77

----------
Test system: Lefty1
Test: Lefty1 binders on small-molecule microarrays, primary screen, biochemical, small-molecule microarray, 635/667 nm fluorescence (AID 1139)
Settings: small-molecule microarray binding, fluorescence 635/667; higher = more signal
Kindly state composite z-score for each of the entries shown.

Worked cases, answers included:
COC(=O)[C@@]1(Cc2ccccc2)[C@H]2c3cc(C(=O)N(C)C)n(Cc4c(-c5ccccc5)noc4C)c3C[C@H]2CN1C(=O)c1ccccc1 | -0.579
O=C1O[C@H](c2ccccc2)[C@H](c2ccccc2)N2[C@H]1[C@@H](C(=O)O)[C@]1(C(=O)Nc3ccc(C#CC4(O)CCCCCC4)cc31)[C@H]2c1ccc(OCCO)cc1 | 0.473

Items follow; give composite z-score for each.
1. CCOC(=O)C[C@H]1[C@H](OC(=O)c2ccc(-c3ccccc3)cc2)[C@@H](NC(=O)c2ccc(-c3ccccc3)cc2)c2cc(OCCCO)ccc2N1C(=O)Cc1ccc(OC)cc1
2. CCCCC=C[C@@H](NC(=O)c1cccs1)c1ccccc1

[-0.245, -0.389]

----------
Answer each item with its documented composite z-score.
System: Human papillomavirus type 1a E7 protein (residues 1-88)
Experiment: HPV1a E7 small-molecule binders, primary screen, biochemical, small-molecule microarray, residues 1-88, 635 nm (AID 1129)
Settings: small-molecule microarray binding, fluorescence 635 nm; higher = more signal
Answers are plain numbers.

Consider the following items and state reported composite z-score for each.
1. COC(=O)c1ccc(C23CC2(C(NP(=O)(c2ccccc2)c2ccccc2)c2ccccc2)C3)cc1 (stereo not drawn)
2. CCCCC=C[C@@H](NC(=O)c1ccc(C(=O)OC)cc1)c1ccccc1
3. COc1ccccc1CN1C(=O)c2ccccc2[C@@H](C(=O)NCCN2CCOCC2)[C@@H]1c1ccc(CO)cc1
4. O=C1C=CC(=O)[C@@H]2CC(COc3ccccc3)=C3[C@@H](CCc4ccccc4)OB(O)C[C@@H]3[C@H]12
5. COCC(=C=CC[C@@H](O)c1ccc(CO)o1)CCO
6. O=C1N(CCS(=O)(=O)c2ccccc2)Cc2ccccc2C[C@]12N=C(c1ccc(OCCCO)cc1)O[C@@H]2c1ccccc1
7. O=C1C[C@@](C(=O)NC2CC2)(c2ccc([N+](=O)[O-])cc2)[C@@H](c2ccc(CO)cc2)N1CC12CC3CC(CC(C3)C1)C2
8. O=C1OCCC=C[C@H]2OC34C=CCN(Cc5ccccc5)C(=O)[C@H]3N(CCCO)C(=O)[C@@H]4C12 (stereo partly drawn)

1. 1.14
2. 1.05
3. 0.789
4. 0.273
5. 0.114
6. 1.08
7. 0.831
8. -1.17

----------
Test system: Lefty1
Assay: Lefty1 binders on small-molecule microarrays, primary screen, biochemical, small-molecule microarray, 635/667 nm fluorescence (AID 1139)
Details: small-molecule microarray binding, fluorescence 635/667; higher = more signal
observed_property: composite z-score
Numbers only.

Solved cases (2 shown):
COCCOC(=O)N1C(=O)[C@@]2(c3cc(C#CCNC(N)=O)ccc31)[C@H](c1ccc(O)cc1)N1[C@H](c3ccccc3)[C@H](c3ccccc3)OC(=O)[C@H]1[C@@H]2C(=O)NC[C@H](O)c1ccccc1 | 1.13
CCOC(=O)C[C@H]1[C@H](OC(=O)c2ccc(C(=O)c3ccccc3)cc2)[C@@H](NC(=O)C2CCCCC2)c2cc(OCCCO)ccc2N1C(=O)c1ccccc1 | 0.166

Now for the compound whose composite z-score we want.
For the compound COc1ccc(C#Cc2ccc3c(c2)[C@]2(C(=O)N3)[C@H](C(=O)NC[C@H](O)c3ccccc3)[C@H]3C(=O)O[C@H](c4ccccc4)[C@H](c4ccccc4)N3[C@@H]2c2ccc(OCCO)cc2)cc1 , what composite z-score is on record?
1.22

----------
Assay: A549 lung cancer cell viability effects, profiling panel, resazurin fluorescence, 24 h, PK04 Diversity Set (AID 1171); note: test concentration not given here
Settings: higher = more signal, called active from +8 up or from −8 down
Quick rule: z-score of at least -0.2 means true, below that means false.

[N-]=[N+]=NCc1ccccc1C[C@]1(C(=O)O)N=C(c2ccc(OCCCO)cc2)O[C@H]1c1ccccc1CN=[N+]=[N-] | true
COC(=O)[C@@]1(Cc2ccccc2)[C@H]2c3cc(C(=O)N(C)C)n(Cc4cc(C)n(C)n4)c3C[C@H]2CN1C(=O)c1ccccc1 | false
COc1cc(CO)ccc1OC(C)=O | false
[N-]=[N+]=NCc1ccccc1C[C@]1(C(=O)NCC(O)CO)N=C(c2ccc(OCCCO)cc2)O[C@H]1c1ccccc1N=[N+]=[N-] (stereo partly specified) | true
[N-]=[N+]=NCc1ccccc1C[C@]1(C(=O)O)N=C(c2ccc(OCCCO)cc2)O[C@H]1c1ccccc1 | true
C=CC(COC(C)=O)NS(=O)(=O)c1ccc(Br)cc1 (stereo unspecified) | false
O=C1OCCC=C[C@H]2OC34C=CCN(Cc5ccccc5)C(=O)[C@H]3N(CCCCCO)C(=O)[C@@H]4C12 (stereo partly specified) | true
CCCCCN1CC=CC23O[C@@H]4C=CCOC(=O)[C@@H]4[C@H]2C(=O)N(CCCO)[C@@H]3C1=O (stereo partly specified) | true

Is z-score at least -0.2? Consider CCOC(=O)C[C@H]1[C@H](OC(=O)c2ccccc2-c2ccccc2)[C@@H](NC(=O)Cc2ccc(OC)cc2)c2cc(OCCCO)ccc2N1C(=O)c1ccccc1
true

Test whether the molecule C=C[C@H](C)[C@@H](O)c1ccc(O)c2ccccc12 records z-score of -0.2 or higher.
false
